# TESTED_TARGET: T1, Human EphA2 (Ecto), C-terminal polyHis (Human, UniProt P29317 24-537)
# T1 construct: extracellular domain; also called EPH receptor A2; ephrin type-A receptor 2
# T1 sequence (P29317 24-537): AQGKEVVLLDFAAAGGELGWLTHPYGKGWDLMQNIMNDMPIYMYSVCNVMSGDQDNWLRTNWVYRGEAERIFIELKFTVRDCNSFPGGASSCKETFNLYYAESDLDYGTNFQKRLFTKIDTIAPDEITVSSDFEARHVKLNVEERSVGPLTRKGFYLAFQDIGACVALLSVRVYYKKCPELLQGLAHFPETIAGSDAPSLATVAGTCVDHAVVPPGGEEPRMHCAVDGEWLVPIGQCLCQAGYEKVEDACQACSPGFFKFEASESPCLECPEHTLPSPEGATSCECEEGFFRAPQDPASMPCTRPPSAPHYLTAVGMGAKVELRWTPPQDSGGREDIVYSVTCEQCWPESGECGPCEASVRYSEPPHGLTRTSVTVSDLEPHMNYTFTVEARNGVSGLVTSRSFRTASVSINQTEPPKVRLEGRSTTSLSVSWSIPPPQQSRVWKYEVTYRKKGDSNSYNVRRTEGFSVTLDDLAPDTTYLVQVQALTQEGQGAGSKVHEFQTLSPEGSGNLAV
# PROTOCOL_NOTES: fluorescence polarisation competition; competitor fluorescent Compound 66
Starred links: 1 amine or outer side, 2 acyl side, 3 side chain; linkers in the order of their positions; H or OH if unused. Positions of bridges follow the written chain, without caps; N, C: chain ends. Non-standard residues stand in square brackets, D forms with d. Primed or numbered codes have the meaning given here. No end group written: not given here. TBMB′ = 1,3,5-tris(bromomethyl)benzene, 1,3,5-tris(methylene)benzene core, three thioethers to Cys; Phe(4-Br) = N[C@@H](Cc1ccc(Br)cc1)C(=O)O; 1Nal = N[C@@H](Cc1cccc2ccccc12)C(=O)O; 2Nal = N[C@@H](Cc1ccc2ccccc2c1)C(=O)O; TBMB = c1c(C[*:1])cc(C[*:3])cc1C[*:2]; hArg = N=C(N)NCCCC[C@H](N)C(=O)O; 4Pal = N[C@@H](Cc1ccncc1)C(=O)O; Tle = CC(C)(C)[C@H](N)C(=O)O; Aib = CC(C)(N)C(=O)O; Sar = CNCC(=O)O
// assign yes (1) if Ki falls strictly below 30 nM, else no (0) (ties count as no (0))

Below 30 nM on Ki? Entry ARDDPCPWGPFWCPVNRPGCA (linker 6-13-20 via TBMB (inferred), also called Compound 62) [Bicycle Compound Number 62 (TBMB scaffold)]
yes (1)

Below 30 nM on Ki? Entry [Sar][Sar]ACP[1Nal]GPF[1Nal]CPVNRPGC (linker 4-11-18 via TBMB, also called Compound 120) [Bicycle Compound Number 120 (TBMB scaffold)]
yes (1)

Is 30 nM strictly greater than the binder's reported Ki? binder: [Sar][Sar]ACP[1Nal]G[Aib]FWCP[Tle]NRPGC (linker 4-11-18 via TBMB, also called Sar2-ACP(1Nal)G(Aib)FWCP(tBuGly)NRPGC) [Bicycle Compound Number 126 (TBMB scaffold)]
yes (1)

Consider the binder [Sar][Sar]ACP[1Nal]GPFWCPVN[hArg]P[dA]C (linker 4-11-18 via TBMB) [Bicycle Compound Number 134 (TBMB scaffold)] . Is its Ki strictly less than 30 nM?
yes (1)

Take the binder [Sar][Sar]ACPWGP[Phe(4-Br)]WCPVNRPGC (linker 4-11-18 via TBMB′, also called Compound 85) [Bicycle Compound Number 85 (TBMB scaffold)] and say whether its Ki is less than 30 nM.
no (0)

# strict comparison: is reported Ki < 30 nM? input = [Sar][Sar]ACP[1Nal]GPFWCPV[dA]RPGC (linker 4-11-18 via TBMB, also called Sar2-ACP(1Nal)GPFWCPV(D-Ala)RPGC) [Bicycle Compound Number 115 (TBMB scaffold)]
yes (1)

Dear reviewer, please state whether [Sar][Sar]ACPWGP[4Pal]WCPVNRPGC (linker 4-11-18 via TBMB′, also called Compound 84) [Bicycle Compound Number 84 (TBMB scaffold)] has Ki strictly beneath 30 nM.
no (0)

Determine whether this binder shows Ki lower than 30 nM (ties excluded): [Sar][Sar]ACPWGP[2Nal]WCPVNRPGC (linker 4-11-18 via TBMB′, also called Compound 95) [Bicycle Compound Number 95 (TBMB scaffold)]
no (0)

Bench note: check whether [Sar][Sar]ACP[1Nal]GPFWCP[Tle]NRP[dA]C (linker 4-11-18 via TBMB, also called Sar2-ACP(1Nal)GPFWCP(tBuGly)NRP(D-Ala)C) [Bicycle Compound Number 132 (TBMB scaffold)] shows Ki below 30 nM
yes (1)

Lab note: confirm whether the reported Ki for this binder is below 30 nM, equality not counting. binder: [Sar][Sar]ACP[1Nal]GPFWCP[Tle][dA]RPGC (linker 4-11-18 via TBMB, also called Sar2-ACP(1Nal)GPFWCP(tBuGly)(D-Ala)RPGC) [Bicycle Compound Number 129 (TBMB scaffold)]
yes (1)

Lab log: compare recorded Ki with 30 nM; is it strictly lower for ACRVSPEYCPFGPVWCAGAAA (linker 2-9-16 via TBMB, also called Compound 34) [Bicycle Compound Number 34 (TBMB scaffold)] ?
no (0)
